tested on: Herpes Virus Type 1 (HSV-1); assay: HSV-1 plaque reduction in BSC-1 cells; assay type: cell-based; conditions: Human alphaherpesvirus 1, BSC-1, in Chlorocebus sabaeus, read-out: 50% Inhibitory Concentration, Virus Tested: HSV-1
pIC50: −log10 of the molar value.
PROPERTY MEASURED: pIC50

1) NC(=O)c1cn([C@H]2C=C[C@@H](CO)O2)c2ncnc(N)c12 [Dideoxydidehydrosangivamycin]    < 4.00
2) NC(=O)c1cn([C@H]2CC[C@@H](CO)O2)c2ncnc(N)c12 [Dideosysangivamycin]    < 4.00
